Reference source for all entries: PubChem BioAssay AID651973

Tested on: Cell-based VP16 transactivation luciferase reporter, luminescence
Protocol: compounds lowering VP16-driven luciferase output – cell-based, luminescence, counter-screen for LRH-1 inverse agonist project, dose response (AID 651973)
Calls of active or inactive are those of the source. The rule behind the calls is not given here.
Pick one and only one: y (active), n (inactive)

Any idea what this test logged for COc1ccc(/C=N/NC(=O)c2ccc(NC(=O)c3cccc([N+](=O)[O-])c3)cc2)c(OC)c1 ?
n

Any idea what this test logged for CC(=O)c1ccc(OC(C)C(=O)OCC(=O)NCCc2ccccc2)cc1 (stereo not given) ?
n

Any idea what this test logged for Cc1cccc(NC(=O)CSc2nc3[nH]ncc3c(=O)[nH]2)c1C ?
n

Any idea what this test logged for CCOC(=O)c1cc2sccc2n1CC(=O)Nc1ccc2c(c1)OCCO2 ?
n

Any idea what this test logged for CCOc1ccc(NC(=O)CSc2nnc(C(C)C)n2CC)cc1 ?
n

Any idea what this test logged for COc1cc(OC)cc(C(=O)N[C@H](C(=O)OCC(=O)Nc2ccc3c(c2)OCO3)C(C)C)c1 ?
n

Any idea what this test logged for COc1ccc(CCNC(=O)CSc2nn3c(=O)c(C)nnc3s2)cc1OC ?
n

Any idea what this test logged for Nc1ccc(C(=O)NN2C(=O)[C@H](Cl)C2c2ccc(Cl)cc2)cc1 (stereo not given in full) ?
y

Any idea what this test logged for CCCc1cc(=O)oc2cc(OCC(=O)NCc3ccccn3)ccc12 ?
n

Any idea what this test logged for Cc1ccc(C)c(NC(=O)CSc2nc3[nH]ncc3c(=O)[nH]2)c1 ?
n

###

Test system: Cell-based VP16 transactivation luciferase reporter, luminescence
Protocol: compounds lowering VP16-driven luciferase output – cell-based, luminescence, counter-screen for LRH-1 inverse agonist project, dose response (AID 651973)
Active and inactive are the calls of the source. How the calls were made is not given here.
Please respond with reported IC50 for every item in the list.

What does the record list as IC50 for CC(=O)Nc1ccc(NC(=O)COC(=O)Cc2c[nH]c3ccccc23)cc1 ?
> 35.9 µM (inactive)

What does the record list as IC50 for CC1CCC2(CC1)NC(=O)N(CC(=O)Nc1ccc3c(c1)OCCCO3)C2=O (centres undefined) ?
> 35.9 µM (inactive)

What does the record list as IC50 for COC(=O)c1ccc(CNC(=O)COC(=O)c2cc(Cl)nc(Cl)c2)cc1 ?
> 35.9 µM (inactive)

What does the record list as IC50 for CCc1cc(=O)[nH]c(SCC(=O)Nc2ccc3c(c2)OCCO3)n1 ?
> 35.9 µM (inactive)

What does the record list as IC50 for Cc1onc(-c2cccc(Cl)c2Cl)c1C(=O)O/N=C(\N)c1ccc([N+](=O)[O-])o1 ?
> 35.9 µM (inactive)

What does the record list as IC50 for COc1ccc(NC(=O)COC(=O)c2c(-c3ccccc3)noc2C)cc1 ?
> 35.9 µM (inactive)

What does the record list as IC50 for COCCNc1ccc([N+](=O)[O-])cc1C(=O)NC1CCCc2ccccc21 (centres undefined) ?
> 35.9 µM (inactive)

What does the record list as IC50 for Cc1ccccc1C(=O)NC1CCN(CC(=O)Nc2ccc(Br)cc2)CC1 ?
> 35.9 µM (inactive)

What does the record list as IC50 for Cc1cc(NC(=O)c2ccc([N+](=O)[O-])o2)ccc1NC(=O)c1ccco1 ?
> 35.9 µM (inactive)

What does the record list as IC50 for COCC(=O)NC1CCN(CC(=O)Nc2ccc(OC)cc2[N+](=O)[O-])CC1 ?
> 35.9 µM (inactive)

What does the record list as IC50 for COC(=O)c1ccc(NC(=O)CSc2nn3c(=O)c(C)nnc3s2)cc1 ?
> 35.9 µM (inactive)

What does the record list as IC50 for CC(=O)Nc1ccc(NC(=O)CSc2ccc(-c3ccco3)nn2)cc1 ?
> 35.9 µM (inactive)

What does the record list as IC50 for O=C(CCl)NCCN1C(=O)S/C(=C\c2cccnc2)C1=O ?
26.8 µM (inactive)

What does the record list as IC50 for Cc1cc(OCC(=O)NCc2cccnc2)c2c(C)c(C)c(=O)oc2c1 ?
> 35.9 µM (inactive)
